The reader will find reported IC50 values listed item by item below.
# tested on: Human thrombin (Homo sapiens, UniProt P00734)
# Construct: purchased Haematologic Technologies Inc
# assay: Inhibition of the protease activity of thrombin (chromogenic substrate S-2238)
# Format: biochemical
# cond: Table C; 3 nM thrombin, 125 μM S-2238, 10 min pre-incubation, RT
value type: IC50

- Nc1nc(-c2cccnc2)n[nH]1: > 1 µM
- O=C(c1cccs1)n1nc(-c2cccs2)nc1NCc1ccccc1: > 1 µM
- COc1ccc(CNc2nc(-c3cccnc3)nn2C(=O)c2ccccc2)cc1: 0.1 to 1 µM
- O=C(c1ccccc1Cl)n1nc(-c2cccnc2)nc1NCc1ccc(F)cc1: < 0.1 µM
- CCC(=O)n1nc(-c2cccs2)nc1NCc1ccccc1: < 0.1 µM
- O=C(c1cccnc1)n1nc(-c2cccnc2)nc1NCc1cccs1: 0.1 to 1 µM
- O=C(Nc1n[nH]c(-c2ccco2)n1)c1ccccc1: > 1 µM
- COC(=O)c1nc(NC(=O)c2ccc(Cl)cc2Cl)n[nH]1: > 1 µM
- COc1ccc(CNc2nc(-c3cccnc3)nn2C(=O)c2cccs2)cc1: > 1 µM
- COc1ccc(CNc2nc(-c3cccnc3)nn2C(=O)Cc2ccccc2)cc1: < 0.1 µM
- CC(=O)n1nc(-c2cccnc2)nc1NCc1ccc(Cl)cc1: < 0.1 µM
- Cc1ccc(CNc2nc(-c3cccnc3)nn2C(=O)C(C)C)cc1: < 0.1 µM
- CC(=O)n1nc(-c2cccnc2)nc1NCc1ccco1: < 0.1 µM
- CC(C)CC(=O)n1nc(-c2cccnc2)nc1NCc1ccc(F)cc1: < 0.1 µM
- O=C(c1ccccc1Cl)n1nc(-c2cccs2)nc1NCc1ccccc1: < 0.1 µM
- CCCC(=O)n1nc(-c2cccnc2)nc1NCc1ccc(OC)cc1: < 0.1 µM
- O=C(Cc1ccccc1)n1nc(-c2cccnc2)nc1NCc1ccc(F)cc1: < 0.1 µM
- CC(=O)Nc1n[nH]c(NCc2ccccc2)n1: > 1 µM
- COc1ccc(CNc2nc(-c3cccnc3)nn2C(C)=O)cc1: 0.1 to 1 µM
- COC(=O)c1n[nH]c(NC(=O)C(C)(C)C)n1: > 1 µM
- O=C(c1ccccc1Cl)n1nc(-c2ccco2)nc1NCc1ccccc1: < 0.1 µM
- O=C(c1ccccc1)n1nc(-c2ccco2)nc1NCc1ccccc1: < 0.1 µM
- COc1ccccc1CNc1nc(-c2ccco2)nn1C(=O)c1ccc(C)cc1: 0.1 to 1 µM
- CS(=O)(=O)n1nc(C(=O)N2CCOCC2)nc1N: > 1 µM
- CCC(=O)n1nc(-c2cccnc2)nc1NCc1ccccc1: < 0.1 µM
- O=C(Nc1ccccc1Cl)c1nc(-n2cnnc2)n[nH]1: > 1 µM
- CCS(=O)(=O)n1nc(C(=O)N2CCOCC2)nc1N: > 1 µM
- CC(C)CC(=O)n1nc(-c2cccnc2)nc1NCc1ccccc1: < 0.1 µM
- COc1ccc(CNc2nc(-c3cccnc3)nn2C(=O)c2ccc(C)cc2)cc1: 0.1 to 1 µM
- CCOc1ccc(NC(=O)c2nc(-n3cnnc3)n[nH]2)cc1: > 1 µM
- Cc1ccc(C(=O)n2nc(-c3cccnc3)nc2NCc2ccccc2)cc1: < 0.1 µM
- COC(=O)c1nnc(NC(=O)c2ccc(F)cc2)[nH]1: 0.1 to 1 µM
- COc1ccc(CNc2nc(-c3cccnc3)nn2C(=O)c2ccco2)cc1: 0.1 to 1 µM
- CS(=O)(=O)n1nc(-c2ccco2)nc1NCc1cccs1: > 1 µM
- CCOC(=O)n1nc(-c2ccc(Cl)cc2)cc1N: > 1 µM
- CC(=O)n1nc(-c2cccnc2)nc1NCc1ccc(C)cc1: < 0.1 µM
- Nc1nc(-c2cccs2)n[nH]1: > 1 µM
- CS(=O)(=O)n1nc(-c2cccnc2)nc1NCc1ccco1: > 1 µM
- Nc1nc(C(=O)N2CCOCC2)nn1S(=O)(=O)c1ccc(Cl)cc1: > 1 µM
- Cc1ccc(CNc2nc(-c3cccnc3)nn2C(=O)CC(C)C)cc1: < 0.1 µM
- COCC(=O)n1nc(-c2cccnc2)nc1NCc1ccc(F)cc1: > 1 µM

====

# tested on: Human thrombin (Homo sapiens)
# Construct: purchased Haematologic Technologies Inc
# assay: Inhibition of the protease activity of thrombin (chromogenic substrate S-2238)
# Type: biochemical
# cond: inhibition of the protease activity of thrombin; class symbols a/b/c
value type: IC50

* COc1ccc(CNc2nc(-c3ccncc3)nn2C(=O)c2ccccc2)cc1 | > 1000 nM
* O=C(O)c1cc(-c2ccccn2)nn1CCc1ccc(F)cc1 | > 1000 nM
* O=C(O)c1cc(-c2ccccn2)n(CCc2ccc(F)cc2)n1 | > 1000 nM
* CCC(=O)n1nc(-c2ccncc2)nc1NCc1ccc(F)cc1 | < 100 nM
* CC(C)(C)C(=O)n1nc(-c2ccccc2F)cc1NCc1ccccc1 | 100 to 1000 nM
* CC(C)(C)C(=O)Cn1nc(-c2cccnc2)nc1NCc1ccc(F)cc1 | > 1000 nM
* O=C(c1cc(-c2ccccn2)n(CCc2ccc(F)cc2)n1)N1CCCCC1 | > 1000 nM
* O=C(Cc1ccccc1)n1nc(-c2ccncc2)nc1NCc1ccccc1 | < 100 nM
* CCC(=O)n1nc(-c2cccnc2)nc1N | > 1000 nM
* CC(C)(C)C(=O)n1nc(-c2cccs2)nc1NCc1ccc(F)cc1 | < 100 nM
* CC(=O)Cn1nc(-c2cccnc2)nc1NCc1ccc(F)cc1 | > 1000 nM
* c1cncc(-c2n[nH]c(NCc3cccs3)n2)c1 | > 1000 nM
* COc1ccccc1C(=O)n1nc(-c2ccccn2)cc1NCc1cccs1 | 100 to 1000 nM
* COc1ccccc1C(=O)n1nc(-c2ccccn2)cc1NCc1ccsc1 | 100 to 1000 nM
* COc1ccc(CNc2nc(-c3ccccn3)nn2C(=O)Cc2ccccc2)cc1 | < 100 nM
* COc1ccc(CNc2nc(-c3ccncc3)nn2C(=O)c2ccoc2)cc1 | > 1000 nM
* O=C(c1ccccc1)n1nc(-c2ccncc2)nc1NCc1ccccc1 | < 100 nM
* COc1ccccc1C(=O)n1nc(-c2ccccn2)nc1NCc1cc2ccccc2s1 | > 1000 nM
* CCC(=O)n1nc(-c2cccnc2)nc1NCCc1ccccc1 | > 1000 nM
* Cc1ccc(C(=O)n2nc(-c3ccccn3)cc2NCc2ccccc2)c(N)c1 | 100 to 1000 nM
* CCC(=O)n1nc(-c2cccs2)nc1NCc1ccc(F)cc1 | 100 to 1000 nM
* CNC(=O)n1nc(-c2cccnc2)nc1NCc1ccc(F)cc1 | > 1000 nM
* O=C(Cc1ccccc1)n1nc(-c2ccccn2)nc1NCc1ccc(F)cc1 | < 100 nM
* CCC(=O)n1nc(-c2ccccc2)cc1NCc1ccc(F)cc1 | > 1000 nM
* CC(C)(C)C(=O)n1nc(-c2ccccn2)cc1NCc1ccoc1 | 100 to 1000 nM
* COC(=O)n1nc(-c2cccnc2)nc1NCc1ccc(F)cc1 | 100 to 1000 nM
* CCOC(=O)n1nc(-c2cccnc2)nc1NCc1ccc(F)cc1 | 100 to 1000 nM
* O=C(Cc1ccccc1)n1nc(-c2ccncc2)nc1NCc1ccc(F)cc1 | < 100 nM
* O=C(Cc1ccccc1)n1nc(-c2ccccn2)nc1NCc1ccccc1 | < 100 nM
* O=C(c1ccccc1Cl)n1nc(-c2ccccn2)cc1NCc1ccc(F)cc1 | 100 to 1000 nM
* CCCC(=O)n1nc(-c2ccncc2)nc1NCc1ccccc1 | < 100 nM
* CCOC(=O)c1cc(-c2ccccn2)nn1CCc1ccc(F)cc1 | > 1000 nM
* O=C(c1cccc2c1OC(F)(F)O2)n1nc(-c2ccccc2)nc1NCc1ccc(F)cc1 | > 1000 nM
* Cc1ccc(C(=O)n2nc(-c3ccccn3)nc2NCc2ccccc2)c(N)c1 | < 100 nM
* CSc1nc(-c2cccs2)nn1C(=O)c1ccccc1Cl | < 100 nM
* CN(C(=O)c1cc(-c2ccccn2)nn1CCc1ccc(F)cc1)c1ccccc1 | > 1000 nM
* CC(=O)c1cc(-c2ccccn2)nn1CCc1ccc(F)cc1 | > 1000 nM
* CC(C)CC(=O)n1nc(-c2ccccc2F)cc1NCc1ccccc1 | > 1000 nM
* O=C(Cn1nc(-c2cccnc2)nc1NCc1ccc(F)cc1)c1ccccc1 | > 1000 nM
* COc1ccc(CNc2nc(-c3ccncc3)nn2C(=O)Cc2ccccc2)cc1 | < 100 nM

====

# tested on: Human thrombin (Homo sapiens)
# Construct: purchased Haematologic Technologies Inc
# assay: Inhibition of the protease activity of thrombin (chromogenic substrate S-2238)
# Format: biochemical
# cond: inhibition of the protease activity of thrombin
value type: IC50

- Cc1ccc(C(=O)n2nc(-c3ccccn3)nc2NCc2ccccc2)c(C)c1: 100 to 1000 nM
- COc1ccc(C(=O)n2nc(-c3ccccn3)nc2NCc2ccccc2)c(C)c1: < 100 nM
- O=C(c1ccsc1)n1nc(-c2ccncc2)nc1NCc1ccccc1: < 100 nM
- O=C(c1cccs1)n1nc(-c2ccccn2)nc1NCc1ccccc1: < 100 nM
- Cc1ccccc1C(=O)n1nc(-c2ccccn2)cc1NCc1ccccc1: > 1000 nM
- COc1ccccc1C(=O)n1nc(-c2ccccc2F)cc1NCc1ccccc1: > 1000 nM
- CC(C)(C)OC(=O)Nc1ccccc1C(=O)n1nc(-c2ccccn2)nc1NCc1ccccc1: > 1000 nM
- O=C(c1ccc2ccccc2c1)n1nc(-c2ccccn2)nc1NCc1ccccc1: 100 to 1000 nM
- COc1ccccc1C(=O)n1nc(-c2ccccn2)cc1NCc1ccccc1: 100 to 1000 nM
- COc1ccccc1C(=O)n1nc(-c2ccccn2)cc1NCc1ccco1: 100 to 1000 nM
- COc1ccccc1C(=O)n1nc(-c2cccs2)nc1NCc1ccccc1: < 100 nM
- COc1ccc(C(=O)n2nc(-c3ccccn3)nc2NCc2ccccc2)cc1: < 100 nM
- COc1ccc(C(=O)n2nc(-c3ccccc3F)cc2NCc2ccccc2)c(OC)c1: > 1000 nM
- c1ccc(CNc2nc(-c3ccncc3)n[nH]2)cc1: > 1000 nM
- O=C(c1ccsc1)n1nc(-c2ccccc2F)cc1NCc1ccccc1: > 1000 nM
- Fc1ccc(CNc2nc(-c3ccccn3)n(CCc3ccccc3)n2)cc1: > 1000 nM
- COc1ccc(CNc2nc(-c3ccncc3)nn2C(=O)c2ccsc2)cc1: 100 to 1000 nM
- O=C(N1CCCCC1)n1nc(-c2cccnc2)nc1NCc1ccc(F)cc1: > 1000 nM
- CC(C)(C)OC(=O)n1nc(-c2cccnc2)nc1NCc1ccc(F)cc1: > 1000 nM
- O=C(c1ccccc1C(F)(F)F)n1nc(-c2ccccn2)nc1NCc1ccccc1: > 1000 nM
- O=C(c1ccco1)n1nc(-c2ccccn2)nc1NCc1ccc(F)cc1: < 100 nM
- COc1ccc(CNc2nc(-c3ccccn3)nn2C(=O)c2ccsc2)cc1: 100 to 1000 nM
- COc1cccc(C(=O)n2nc(-c3ccccn3)nc2NCc2ccccc2)c1: < 100 nM
- CN(C)c1ccccc1C(=O)n1nc(-c2ccccn2)nc1NCc1ccccc1: > 1000 nM
- COc1ccccc1C(=O)n1nc(-c2ccccc2)cc1NCc1ccc(F)cc1: > 1000 nM
- O=C(c1cccc2c1OC(F)(F)O2)n1nc(-c2ccccn2)nc1NCc1ccccc1: > 1000 nM
- O=C(c1ccoc1)n1nc(-c2ccncc2)nc1NCc1ccccc1: < 100 nM
- O=C(c1ccsc1)n1nc(-c2cccs2)nc1NCc1ccccc1: 100 to 1000 nM
- O=C(c1cccs1)n1nc(-c2ccncc2)nc1NCc1ccccc1: < 100 nM
- O=C(c1ccccc1F)n1nc(-c2ccccc2F)cc1NCc1ccccc1: 100 to 1000 nM
- CCN(C)C(=O)n1nc(-c2cccnc2)nc1NCc1ccc(F)cc1: > 1000 nM
- O=C(c1ccccc1Cl)n1nc(-c2ccncc2)nc1NCc1ccccc1: < 100 nM
- O=C(c1ccccc1Cl)n1nc(-c2ccccc2F)cc1NCc1ccccc1: 100 to 1000 nM
- COc1ccccc1C(O)c1cc(-c2ccccn2)nn1CCc1ccc(F)cc1 (centres unmarked): > 1000 nM
- CCN(C)C(=O)c1cc(-c2ccccn2)nn1CCc1ccc(F)cc1: > 1000 nM
- O=C(c1c(Cl)cccc1Cl)n1nc(-c2ccccn2)nc1NCc1ccccc1: > 1000 nM
- CCNC(=O)c1cn(-c2ccccn2)nc1NCc1ccc(F)cc1: > 1000 nM
- O=C(c1ccc(Cl)cc1)n1nc(-c2ccncc2)nc1NCc1ccccc1: < 100 nM
